assay-overview: Metabolic stability in presence of BSA
Format: ADME
property-label: Stability

>>> reported("C=CC1=C(C)/C(=C/c2[nH]c(Cc3[nH]c(/C=C4\\NC(=O)C(C)=C4C=C)c(C)c3CCC(=O)O)c(CCC(=O)O)c2C)NC1=O [BILIRUBIN]")
"0.33 %/min"
>>> reported("C=CC1=C(C)/C(=C/C2=NC(=C\\c3[nH]c(/C=C4\\NC(=O)C(C)=C4C=C)c(C)c3CCC(=O)N[C@H]3C(O)O[C@H](CO)[C@@H](O)[C@@H]3O)/C(CCC(=O)N[C@@H]3C(O)O[C@@H](CO)[C@H](O)[C@H]3O)=C2C)NC1=O (some centres undefined) [BILIVERDIN DIGLUCOSAMINE]")
"Stable"
>>> reported("C=CC1=C(C)/C(=C/C2=NC(=C\\c3[nH]c(/C=C4\\NC(=O)C(C)=C4C=C)c(C)c3CCC(=O)O)/C(CCC(=O)O)=C2C)NC1=O [BILIVERDIN]")
"Stable"
>>> reported("C=CC1=C(C)/C(=C/c2[nH]c(Cc3[nH]c(/C=C4\\NC(=O)C(C)=C4C=C)c(C)c3CCC(=O)NCCS(=O)(=O)O)c(CCC(=O)NCCS(=O)(=O)O)c2C)NC1=O [BILIRUBIN DITAURATE]")
"Stable"
